Items are presented alongside their recorded growth.
# Test system: OVCAR-3 ovarian
# test-details: NCI-60 one-dose screen, 48 h (100 = growth as untreated, 0 = no growth, -100 = all killed)
# experimental-setup: 10 µM unless noted
Compounds without any hit were thinned out: in the full panel of roughly 83,000, 20% have a hit.
Give just the numeric value; % need not be written.

Example entries and their recorded answers appear below.
Nc1c(C(=O)Nc2ccccn2)sc2nc3c(cc12)C(=O)CCC3 : 3.09
COc1ccc(-c2cc(-c3nnc(SCC(=O)Nc4ccc(C(C)=O)cc4)o3)c3ccccc3n2)cc1 : -20.6
COc1ccc(N(C)c2nc(Cl)nc3ccn(C)c23)cc1 : -12.3

Incoming: What measured growth goes with N#CC1(C#N)C2=C(CCCC2)NC(c2c(F)cccc2Cl)C1(C#N)C#N (stereo not given) ?
Outgoing: 20.3

Incoming: Data request, read-out growth, for CCSc1ccc(C2C(Br)C(=O)N2c2cc(OC)c(OC)c(OC)c2)cc1 (stereo not given)
Outgoing: 3.63

// provenance: PubChem BioAssay (NCI)
